# Target Desc: T1, human NPR1 expressed on CHO-K1 cells in the presence of ANP (human, UniProt P01160 124-151)
# T1 construct: also called hNPR1 CHO K1 + 100 nM ANP
# T1 sequence: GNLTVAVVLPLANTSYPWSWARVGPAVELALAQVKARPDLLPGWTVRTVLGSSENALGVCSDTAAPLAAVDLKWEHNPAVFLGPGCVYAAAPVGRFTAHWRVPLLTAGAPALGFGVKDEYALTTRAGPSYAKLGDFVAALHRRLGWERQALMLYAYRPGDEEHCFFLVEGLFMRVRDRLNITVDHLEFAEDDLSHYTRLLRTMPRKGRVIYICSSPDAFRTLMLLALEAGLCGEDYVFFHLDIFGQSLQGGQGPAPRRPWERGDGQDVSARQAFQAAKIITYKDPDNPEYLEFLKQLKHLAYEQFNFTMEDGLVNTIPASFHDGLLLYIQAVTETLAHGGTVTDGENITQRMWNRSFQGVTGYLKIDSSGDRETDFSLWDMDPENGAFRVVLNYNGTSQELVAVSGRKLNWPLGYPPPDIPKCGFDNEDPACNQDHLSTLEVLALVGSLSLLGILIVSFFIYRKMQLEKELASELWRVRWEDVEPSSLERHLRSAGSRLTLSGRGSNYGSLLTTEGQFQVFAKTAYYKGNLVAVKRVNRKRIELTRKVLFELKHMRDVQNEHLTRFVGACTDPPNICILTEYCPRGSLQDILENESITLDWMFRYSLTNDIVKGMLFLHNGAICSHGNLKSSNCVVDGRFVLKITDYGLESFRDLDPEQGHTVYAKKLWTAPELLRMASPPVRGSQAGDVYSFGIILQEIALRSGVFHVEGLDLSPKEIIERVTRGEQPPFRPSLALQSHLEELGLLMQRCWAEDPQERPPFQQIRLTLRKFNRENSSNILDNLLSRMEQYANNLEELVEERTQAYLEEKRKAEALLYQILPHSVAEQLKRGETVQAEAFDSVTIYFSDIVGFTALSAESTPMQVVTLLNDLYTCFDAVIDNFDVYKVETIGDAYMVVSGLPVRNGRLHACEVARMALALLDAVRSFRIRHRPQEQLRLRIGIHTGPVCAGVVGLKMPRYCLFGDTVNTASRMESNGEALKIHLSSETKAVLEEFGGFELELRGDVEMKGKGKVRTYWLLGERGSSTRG
# T1 sequence (peptide): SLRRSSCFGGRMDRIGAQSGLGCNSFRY
# Measurement Notes: flow cytometry, 1 uM IgG, +100 nM ANP
Quantity Kind: flow cytometry S/BG (S/BG)
Kindly provide the numeric value in S/BG only, without the unit symbol.

Below: 3 binders and their reported flow cytometry S/BG.
{"Binder": "YY06 IgG (YY06_LALA) (antibody, V domains shown) VH: EVQLLESGGGLVQPGGSLRLSCAASGFTFSSYAISWVRQAPGKGLEWVSAISGSGGSTYYAESVKGRFTISRDNSKNTLYLQMNSLRAEDTAVYYCARPYLGDRRSYGFDHWGQGTLVTVSS VL: QSALTQPASVSGSPGQSITISCTGTSSDVGSYNLVSWYQQHPGKAPKLMIYEGSKRPSGVSNRFSGSKSGNTASLTISGLQAEDEADYYCSSYGFHIVVVVFGGGTKLTVLG", "flow cytometry S/BG, S/BG": 18}
{"Binder": "YY01 IgG (YY01_LALA) (antibody, V domains shown) VH: EVQLVESGGGLVQPGGSLRLSCAASGFTFSSYWISWVRQAPGKGLEWVANIKQSGSETYYVESVKGRFTISRDNAKNSLYLQMNSLRAEDTAVYYCARSLRRRSTEHAGFDVWGQGTLVTVSS VL: DIQMTQSPSSLSASVGDRVTITCRASQGISNYLAWYQQKPGKVPKLLIYAASTLQSGVPSRFSGSGSGTDFTLTISSLQPEDVATYYCQQADKFPYTFGQGTKVEIKR", "flow cytometry S/BG, S/BG": 21}
{"Binder": "YY04 IgG (YY04_LALA) (antibody, V domains shown) VH: EVQLVESGGGLVKPGGSLRLSCAASGFTFSNYWISWVRQAPGKGLEWVGRIKSKTYGGTTDYAEPVKGRFTISRDDSKNTLYLQMNSLKTEDTAVYYCAREKYSIRARGHGDYGFDVWGQGTLVTVSS VL: DIQMTQSPSSLSASVGDRVTITCRASQGISNYLAWYQQKPGKVPKLLIYAASTLQSGVPSRFSGSGSGTDFTLTISSLQPEDVATYYCQQGYHAPFTFGQGTKVEIKR", "flow cytometry S/BG, S/BG": 33}

Lookup: Look up flow cytometry S/BG for this binder: YY07 IgG (YY07_LALA) (antibody, V domains shown) VH: EVQLVQSGAEVKKPGESLKISCKGSGYSFTSYWISWVRQMPGKGLEWMGIIYPGTSYTRYSPSFQGQVTISADKSISTAYLQWSSLKASDTAMYYCARGSLPGLLGFDHWGQGTLVTVSS VL: QSVLTQPPSVSGAPGQRVTISCTGSSSNIGAGYDVHWYQQLPGTAPKLLIYGNSNRPNGVPDRFSGSKSGTSASLAITGLQAEDEADYYCQSYDSPTSSSVFGGGTKLTVLG
Found: 44
